These data points were gathered from a melting point compilation (Tetko et al.; mined from patent text by program, amines drawn as free bases though some values may be those of a salt).

Please provide measured melting point for the entries that follow.

Name the reported melting point value associated with the compound CCOC(=O)N(C)CC(N)=S
91 to 93 °C

Try the compound CN1CCNC(C(=O)Cn2c(-c3cc(Cl)ccn3)nc3cccnc32)C1 (configuration not stated)
174 to 175 °C

Thanks! And O=[N+]([O-])c1cccnc1N1CCNCC1 ?
79 to 82 °C

COC(=O)C(Oc1cc(OCc2ccsc2)ccc1C#N)c1ccccc1 (racemic) , same question.
112 to 114 °C

What about CNc1ccc([N+](=O)[O-])cc1[N+](=O)[O-] ?
177 to 178 °C

Same question, CC(=O)N(CCCC(=O)O)C1CCCc2ccccc21 (configuration not stated) this time
141 to 142 °C

Now this one: C[C@]1(COc2ccc(-c3nc(-c4ccc(Cl)cc4)co3)cc2)Cn2cc([N+](=O)[O-])nc2O1
249 to 252 °C

Cool, now CCCCCCCCCCCCCCCCCCSCC(CO)C(C)C (configuration not stated)
29 °C

Follow-up item: COC(=O)CC1=c2ccccc2=Cc2ccccc2O1
59 to 63 °C

Do the same for Cc1cc(C(=N)NO)cn2cc(-c3cccc(-c4ccc(C(=N)NO)cc4)c3)nc12 please
193 to 195 °C

Follow-up entry: C=C(C)C(=O)NCc1cc(C)c(O)c(C)c1
136 to 138 °C

Request: COc1cc2c(cc1O)CCN(c1cc(N)c3cc(OC)c(OC)cc3n1)C2
250 to 251 °C

How about CN1C=CC(c2ccccc2)=C(O)C1 ?
154 to 157 °C

Check CC1(C)C(c2ccc(O)cc2)C1(Cl)Cl (configuration not stated) too.
111 to 112 °C

Also, CCCCCCN(C)c1ccc(C=C2SC(=S)N(Cc3nnn[nH]3)C2=O)cc1 please.
198 to 200 °C

Item: C#CCOc1ccc2c(c1)Sc1cc([N+](=O)[O-])ccc1N2
226 to 227 °C

Again, but for Nc1cccnc1Nc1ccc(Cl)cc1C(=O)c1ccccc1Cl
162 to 164 °C
